growth by entry:
system: U251 CNS; assay: NCI-60 one-dose screen, 48 h (100 = growth as untreated, 0 = no growth, -100 = all killed); conditions: 10 µM unless noted
Compounds without any hit were thinned out: in the full panel of roughly 83,000, 20% have a hit. The source made the active and inactive calls. Rule for the calls: active = growth percent below 10; inactive = the rest.
MEASURE_NAME: growth

# COMPOUND, MEASURE_NAME, MEASUREMENT
data = [
    ("Brc1ccc(-c2nnc3c4[nH]ccc4ncn23)cc1", "growth", "100% (inactive)"),
    ("O=C(CCCCCCSc1nc(-c2ccc(Cl)cc2)cc(-c2ccc(Cl)cc2)n1)NO", "growth", "16.6% (inactive)"),
    ("C[C@@H](NC(=O)[C@@H](CC(=O)N1CCC(N2CCCCC2)CC1)N1C(=O)[C@@H](N2C(=O)OC[C@@H]2c2ccccc2)[C@H]1/C=C/c1cccc(Cl)c1)c1ccccc1", "growth", "55.2% (inactive)"),
    ("CCOC(=O)c1sc2nc(-c3cc(OC)c(OC)c(OC)c3)nc(N3CCOCC3)c2c1C", "growth", "36.2% (inactive)"),
    ("O=C1COCCN1c1ccc(Nc2nc(Cl)nc(N3CCOCC3)n2)cc1", "growth", "101% (inactive)"),
    ("CCc1ccc(-c2ccc(COc3ccc(CC4SC(=O)NC4=O)cc3)cc2)cc1 (stereo unspecified)", "growth", "72.8% (inactive)"),
    ("CCCCCCCCCCCCCC[n+]1cccc(C(N)=O)c1", "growth", "-72.7% (active)"),
    ("N#C/C(C(=O)c1ccccc1)=C1/C(=O)Nc2ccc(F)cc21", "growth", "104% (inactive)"),
    ("CC(C)OC(=O)Nc1cc(F)ccc1F", "growth", "100% (inactive)"),
    ("Nc1nc(Nc2ccccc2)c2ncn(Cc3ccc4c(c3)OCO4)c2n1", "growth", "49.5% (inactive)"),
    ("CN(C)CCCNc1nc(-c2cccc(C(Cl)(Cl)Cl)c2)nc(C(Cl)(Cl)Cl)n1", "growth", "105% (inactive)"),
]

Values from PubChem BioAssay (NCI)
